Hello, the source for this data is patent US12440484B2, in case you need it.

target: HDAC6 human recombinant (Homo sapiens (Human), UniProt Q9UBN7); assay: HDAC enzyme activity inhibition (in vitro), HDAC6 assay; settings: samples at 0.1, 1, 10, 100 and 1000 nM; 37° C. 60 minutes; fluorescence Ex 390, Em 460
Sequence (Q9UBN7 whole entry): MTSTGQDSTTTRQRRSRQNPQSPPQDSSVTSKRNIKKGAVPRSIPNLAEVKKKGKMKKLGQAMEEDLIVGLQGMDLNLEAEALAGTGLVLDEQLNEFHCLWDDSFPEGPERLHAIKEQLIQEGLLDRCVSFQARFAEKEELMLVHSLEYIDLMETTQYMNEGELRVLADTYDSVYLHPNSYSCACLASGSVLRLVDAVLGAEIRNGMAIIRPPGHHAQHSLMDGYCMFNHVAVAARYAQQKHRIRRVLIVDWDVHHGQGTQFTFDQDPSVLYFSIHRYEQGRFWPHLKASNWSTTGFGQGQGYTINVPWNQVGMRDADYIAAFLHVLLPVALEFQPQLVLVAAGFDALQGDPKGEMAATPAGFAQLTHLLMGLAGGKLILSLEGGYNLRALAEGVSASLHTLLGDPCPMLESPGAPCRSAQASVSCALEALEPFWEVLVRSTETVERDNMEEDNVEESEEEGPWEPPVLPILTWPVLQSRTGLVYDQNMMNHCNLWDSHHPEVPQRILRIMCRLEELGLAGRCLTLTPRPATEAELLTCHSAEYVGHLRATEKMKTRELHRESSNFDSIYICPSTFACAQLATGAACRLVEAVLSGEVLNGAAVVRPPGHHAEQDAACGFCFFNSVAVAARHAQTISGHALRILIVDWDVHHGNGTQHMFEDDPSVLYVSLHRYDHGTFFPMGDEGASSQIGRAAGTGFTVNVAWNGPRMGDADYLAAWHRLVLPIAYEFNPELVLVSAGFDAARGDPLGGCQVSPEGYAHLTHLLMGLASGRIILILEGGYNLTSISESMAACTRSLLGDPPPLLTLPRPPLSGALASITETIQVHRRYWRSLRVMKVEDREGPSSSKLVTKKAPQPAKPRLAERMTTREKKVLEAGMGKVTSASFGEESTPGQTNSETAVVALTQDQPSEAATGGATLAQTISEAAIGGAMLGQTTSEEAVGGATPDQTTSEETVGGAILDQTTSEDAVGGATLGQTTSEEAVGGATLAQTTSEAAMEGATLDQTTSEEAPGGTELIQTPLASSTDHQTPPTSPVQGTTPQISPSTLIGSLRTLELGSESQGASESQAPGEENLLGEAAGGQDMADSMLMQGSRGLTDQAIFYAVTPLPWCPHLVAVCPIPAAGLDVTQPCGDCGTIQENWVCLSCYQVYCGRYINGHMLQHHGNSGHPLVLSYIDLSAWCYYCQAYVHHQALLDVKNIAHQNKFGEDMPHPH
ENDPOINT: IC50 (nM)

Reference set (5 entries):
[[record]]
compound = "Cn1c(=O)n(Cc2ccc(-c3nnc(C(F)F)o3)cn2)c(=O)c2cc(-c3ccoc3)ccc21 [Compound 88]"
target_under_test = "HDAC6 human recombinant (Homo sapiens (Human), UniProt Q9UBN7)"
endpoint = "IC50"
measure_unit = "nM"
recorded_measurement = 21

[[record]]
compound = "CC1(C)C(=O)N(Cc2ccc(-c3nnc(C(F)F)o3)cn2)C(=O)c2ccc(N3CCN(C(C)(C)C)CC3)cc21 [Compound 36]"
target_under_test = "HDAC6 human recombinant (Homo sapiens (Human), UniProt Q9UBN7)"
endpoint = "IC50"
measure_unit = "nM"
recorded_measurement = 24

[[record]]
compound = "CC1(C)C(=O)N(Cc2ccc(-c3nnc(C(F)F)o3)cn2)C(=O)c2ccccc21 [Compound 8]"
target_under_test = "HDAC6 human recombinant (Homo sapiens (Human), UniProt Q9UBN7)"
endpoint = "IC50"
measure_unit = "nM"
recorded_measurement = 30

[[record]]
compound = "CC1(C)C(=O)N(Cc2ccc(-c3nnc(C(F)F)o3)cn2)C(=O)c2cc(C3=CCSCC3)ccc21 [Compound 121]"
target_under_test = "HDAC6 human recombinant (Homo sapiens (Human), UniProt Q9UBN7)"
endpoint = "IC50"
measure_unit = "nM"
recorded_measurement = 36

[[record]]
compound = "CC1(C)C(=O)N(Cc2ccc(-c3nnc(C(F)F)o3)cn2)C(=O)c2cc(C3=CC[S+]([O-])CC3)ccc21 (centres unmarked) [Compound 123]"
target_under_test = "HDAC6 human recombinant (Homo sapiens (Human), UniProt Q9UBN7)"
endpoint = "IC50"
measure_unit = "nM"
recorded_measurement = 17


(A) CN1CCC(c2ccc3c(c2)C(=O)N(Cc2ccc(-c4nnc(C(F)F)o4)cn2)C(=O)C3(C)C)CC1 [Compound 54]
(B) CCN1CCN(c2ccc3c(c2)C(C)(C)C(=O)N(Cc2ccc(-c4nnc(C(F)F)o4)cn2)C3=O)CC1 [Compound 39]
(C) COCCn1c(=O)c2ccccc2n(Cc2ccc(-c3nnc(C(F)F)o3)cc2)c1=O [Compound 75]
Reorder the items by IC50, least to greatest. State the ranking by listing the labels in the requested order.
B, A, C
(B: 18 nM, A: 42 nM, C: 368 nM)
